# assayTarget: Mushroom tyrosinase (Agaricus bisporus, UniProt O42713+Q00024+C7FF04+C7FF05)
# protocolDetails: Inhibition of diphenolase activity of mushroom tyrosinase using L-Dopa as substrate preincubated with substrate for 10 mins followed by enzyme addition and measured after 5 mins
One threshold, 6 µM, splits the recorded IC50 values: lower ones are true (1), equal or higher ones are false (0).

Worked examples follow.
O=C(CN1CCC(Cc2ccccc2)CC1)N1CCN(c2ccc(O)cc2)CC1	true (1)
O=C(CN1CCC(Cc2ccccc2)CC1)N1CCN(c2ccccc2)CC1	false (0)
O=C(CCN1CCC(Cc2ccccc2)CC1)N1CCN(c2ccccc2)CC1	false (0)

Field: below-cutoff. Rule: recorded IC50 strictly less than 6 µM. Subject: O=C(CCN1CCC(Cc2ccccc2)CC1)N1CCN(c2ccc(O)cc2)CC1
true (1)

Field: below-cutoff. Rule: recorded IC50 strictly less than 6 µM. Subject: O=C(CN1CCC(Cc2ccc(F)cc2)CC1)N1CCN(c2ccc(O)cc2)CC1
true (1)

Field: below-cutoff. Rule: recorded IC50 strictly less than 6 µM. Subject: O=C(CCN1CCC(Cc2ccc(F)cc2)CC1)N1CCN(c2ccccc2)CC1
false (0)

Field: below-cutoff. Rule: recorded IC50 strictly less than 6 µM. Subject: O=C(CN1CCC(Cc2ccc(F)cc2)CC1)N1CCN(c2ccccc2)CC1
false (0)
